- Test system: NCI-H1734
- assay name: relative viability (nuclei count vs DMSO), 5 days (fraction); higher = more cells survive
- measurement conditions: first compound 0.08 µM
Measured relative viability by item

Completed entries (count: 6):
| compound | value |
| --- | --- |
| Oc1nc(-c2ccc(C(F)(F)F)cc2)nc2c1CSCC2 [XAV939] + N=C(N)NC(=N)NCCc1ccccc1 [Phenformin] (partner 250 µM) | 0.44 |
| Oc1nc(-c2ccc(C(F)(F)F)cc2)nc2c1CSCC2 [XAV939] + O=C(c1cc(Cc2n[nH]c(=O)c3ccccc23)ccc1F)N1CCN(C(=O)C2CC2)CC1 [Olaparib] (partner 8 µM) | 0.655 |
| C=C1C(=O)O[C@@H](CCCCCCCC)[C@@H]1C(=O)O [C-75] + Nc1ncn([C@H]2C[C@H](O)[C@@H](CO)O2)c(=O)n1 [Decitabine] (partner 2 µM) | 0.516 |
| Oc1nc(-c2ccc(C(F)(F)F)cc2)nc2c1CSCC2 [XAV939] + CCNC(=O)c1noc(-c2cc(C(C)C)c(O)cc2O)c1-c1ccc(CN2CCOCC2)cc1 [Luminespib] (partner 0.01 µM) | 0.223 |
| C=C1C(=O)O[C@@H](CCCCCCCC)[C@@H]1C(=O)O [C-75] + COc1cc2c(Oc3ccc(NC(=O)C4(C(=O)Nc5ccc(F)cc5)CC4)cc3F)ccnc2cc1OCCCN1CCOCC1 [Foretinib] (partner 0.25 µM) | 0.942 |
| Oc1nc(-c2ccc(C(F)(F)F)cc2)nc2c1CSCC2 [XAV939] + Cc1nc(Nc2ncc(C(=O)Nc3c(C)cccc3Cl)s2)cc(N2CCN(CCO)CC2)n1 [Dasatinib] (partner 0.075 µM) | 0.501 |

Turning to the following compound.
Returns the measured relative viability for the input compound. Input: C=C1C(=O)O[C@@H](CCCCCCCC)[C@@H]1C(=O)O [C-75] + Cc1nc(Nc2ncc(C(=O)Nc3c(C)cccc3Cl)s2)cc(N2CCN(CCO)CC2)n1 [Dasatinib] (partner 0.075 µM)
0.525

----------
- System: CAL-12T
- assay name: relative viability (nuclei count vs DMSO), 5 days (fraction); higher = more cells survive
- measurement conditions: first compound 0.005 µM
measured quantity: relative viability
Answer with a bare number; do not write a unit.

| compound | assay system | relative viability |
| --- | --- | --- |
| CC1(C)CCC(c2ccc(Cl)cc2)=C(CN2CCN(c3ccc(C(=O)NS(=O)(=O)c4ccc(N[C@H](CCN5CCOCC5)CSc5ccccc5)c(S(=O)(=O)C(F)(F)F)c4)cc3)CC2)C1 [Navitoclax] + Cc1cc(Nc2cc(N3CCN(C)CC3)nc(Sc3ccc(NC(=O)C4CC4)cc3)n2)n[nH]1 [Tozasertib] (partner 0.1 µM) | CAL-12T | 0.273 |
| CC1(C)CCC(c2ccc(Cl)cc2)=C(CN2CCN(c3ccc(C(=O)NS(=O)(=O)c4ccc(N[C@H](CCN5CCOCC5)CSc5ccccc5)c(S(=O)(=O)C(F)(F)F)c4)cc3)CC2)C1 [Navitoclax] + Cc1nc(Nc2ncc(C(=O)Nc3c(C)cccc3Cl)s2)cc(N2CCN(CCO)CC2)n1 [Dasatinib] (partner 0.075 µM) | CAL-12T | 0.433 |
| CC1(C)CCC(c2ccc(Cl)cc2)=C(CN2CCN(c3ccc(C(=O)NS(=O)(=O)c4ccc(N[C@H](CCN5CCOCC5)CSc5ccccc5)c(S(=O)(=O)C(F)(F)F)c4)cc3)CC2)C1 [Navitoclax] + CC(C)C[C@H](NC(=O)[C@H](Cc1ccccc1)NC(=O)c1cnccn1)B(O)O [Bortezomib] (partner 0.002 µM) | CAL-12T | 0.887 |
| CC1(C)CCC(c2ccc(Cl)cc2)=C(CN2CCN(c3ccc(C(=O)NS(=O)(=O)c4ccc(N[C@H](CCN5CCOCC5)CSc5ccccc5)c(S(=O)(=O)C(F)(F)F)c4)cc3)CC2)C1 [Navitoclax] + CS(=O)(=O)N1CCN(Cc2cc3nc(-c4cccc5[nH]ncc45)nc(N4CCOCC4)c3s2)CC1 [Pictilisib] (partner 1 µM) | CAL-12T | 0.549 |
| CC1(C)CCC(c2ccc(Cl)cc2)=C(CN2CCN(c3ccc(C(=O)NS(=O)(=O)c4ccc(N[C@H](CCN5CCOCC5)CSc5ccccc5)c(S(=O)(=O)C(F)(F)F)c4)cc3)CC2)C1 [Navitoclax] + COc1cccc2cc(-c3nc([C@H]4CC[C@H](C(=O)O)CC4)n4ncnc(N)c34)[nH]c12 [OSI-027] (partner 0.5 µM) | CAL-12T | 0.649 |

Turning to the following compound.
Returns the measured relative viability for the input compound. Input: CC1(C)CCC(c2ccc(Cl)cc2)=C(CN2CCN(c3ccc(C(=O)NS(=O)(=O)c4ccc(N[C@H](CCN5CCOCC5)CSc5ccccc5)c(S(=O)(=O)C(F)(F)F)c4)cc3)CC2)C1 [Navitoclax] + NC(=O)Nc1cc(-c2cccc(F)c2)sc1C(=O)N[C@H]1CCCNC1 [AZD7762] (partner 0.2 µM)
0.626

----------
- Test system: NCI-H2342
- assay name: relative viability (nuclei count vs DMSO), 5 days (fraction); higher = more cells survive
- measurement conditions: first compound 0.5 µM
Measured relative viability by item
Answer with a bare number; do not write a unit.

| compound | relative viability |
| --- | --- |
| CC1(C)CCC(c2ccc(Cl)cc2)=C(CN2CCN(c3ccc(C(=O)NS(=O)(=O)c4ccc(N[C@H](CCN5CCOCC5)CSc5ccccc5)c(S(=O)(=O)C(F)(F)F)c4)cc3)CC2)C1 [Navitoclax] + Nc1nc2[nH]cc(CCc3ccc(C(=O)N[C@@H](CCC(=O)O)C(=O)O)cc3)c2c(=O)[nH]1 [Pemetrexed] (partner 0.2 µM) | 0.763 |
| CC1(C)CCC(c2ccc(Cl)cc2)=C(CN2CCN(c3ccc(C(=O)NS(=O)(=O)c4ccc(N[C@H](CCN5CCOCC5)CSc5ccccc5)c(S(=O)(=O)C(F)(F)F)c4)cc3)CC2)C1 [Navitoclax] + O=C(c1cc(Cc2n[nH]c(=O)c3ccccc23)ccc1F)N1CCN(C(=O)C2CC2)CC1 [Olaparib] (partner 8 µM) | 0.456 |

Returns the measured relative viability for the input compound. Input: CC1(C)CCC(c2ccc(Cl)cc2)=C(CN2CCN(c3ccc(C(=O)NS(=O)(=O)c4ccc(N[C@H](CCN5CCOCC5)CSc5ccccc5)c(S(=O)(=O)C(F)(F)F)c4)cc3)CC2)C1 [Navitoclax] + CC(=O)Nc1cccc(-n2c(=O)n(C3CC3)c(=O)c3c(Nc4ccc(I)cc4F)n(C)c(=O)c(C)c32)c1 [Trametinib] (partner 0.02 µM)
0.967

----------
- Tested on: NCI-H1792
- assay name: relative viability (nuclei count vs DMSO), 5 days (fraction); higher = more cells survive
- measurement conditions: first compound 0.253 µM
Threshold 0.5. relative viability below it: y. relative viability at it or above: n.

Record excerpt, results attached:
| compound | class name |
| --- | --- |
| Oc1nc(-c2ccc(C(F)(F)F)cc2)nc2c1CSCC2 [XAV939] + CS(=O)(=O)CCNCc1ccc(-c2ccc3ncnc(Nc4ccc(OCc5cccc(F)c5)c(Cl)c4)c3c2)o1 [Lapatinib] (partner 2 µM) | n |
| C=C1C(=O)O[C@@H](CCCCCCCC)[C@@H]1C(=O)O [C-75] + CC1(C)CCC(c2ccc(Cl)cc2)=C(CN2CCN(c3ccc(C(=O)NS(=O)(=O)c4ccc(N[C@H](CCN5CCOCC5)CSc5ccccc5)c(S(=O)(=O)C(F)(F)F)c4)cc3)CC2)C1 [Navitoclax] (partner 0.5 µM) | n |
| Oc1nc(-c2ccc(C(F)(F)F)cc2)nc2c1CSCC2 [XAV939] + CC(=O)Nc1cccc(-n2c(=O)n(C3CC3)c(=O)c3c(Nc4ccc(I)cc4F)n(C)c(=O)c(C)c32)c1 [Trametinib] (partner 0.02 µM) | y |
| Oc1nc(-c2ccc(C(F)(F)F)cc2)nc2c1CSCC2 [XAV939] + C[C@@H](Oc1cc(-c2cnn(C3CCNCC3)c2)cnc1N)c1c(Cl)ccc(F)c1Cl [Crizotinib] (partner 1 µM) | n |

Pending compound:
API: query returns whether the compound falls strictly under 0.5 in relative viability. Query: Oc1nc(-c2ccc(C(F)(F)F)cc2)nc2c1CSCC2 [XAV939] + N=C(N)NC(=N)NCCc1ccccc1 [Phenformin] (partner 250 µM)
y

----------
- Test system: NCI-H1651
- assay name: relative viability (nuclei count vs DMSO), 5 days (fraction); higher = more cells survive
- measurement conditions: first compound 0.4 µM
measured quantity: relative viability
Answer with a bare number; do not write a unit.

Completed entries (count: 4):
| compound | relative viability |
| --- | --- |
| O=C(O)c1ccc(-c2c[nH]c3ncc(-c4ccccc4)cc23)cc1C1CCCC1 + Cc1nc(NC(=O)N2CCC[C@H]2C(N)=O)sc1-c1ccnc(C(C)(C)C(F)(F)F)c1 [Alpelisib] (partner 2 µM) | 0.613 |
| O=C(O)c1ccc(-c2c[nH]c3ncc(-c4ccccc4)cc23)cc1C1CCCC1 + CS(=O)(=O)N1CCN(Cc2cc3nc(-c4cccc5[nH]ncc45)nc(N4CCOCC4)c3s2)CC1 [Pictilisib] (partner 1 µM) | 0.451 |
| O=C(O)c1ccc(-c2c[nH]c3ncc(-c4ccccc4)cc23)cc1C1CCCC1 + Nc1ncn([C@H]2C[C@H](O)[C@@H](CO)O2)c(=O)n1 [Decitabine] (partner 2 µM) | 0.57 |
| O=C(O)c1ccc(-c2c[nH]c3ncc(-c4ccccc4)cc23)cc1C1CCCC1 + N=C(N)NC(=N)NCCc1ccccc1 [Phenformin] (partner 250 µM) | 0.278 |

Returns the measured relative viability for the input compound. Input: O=C(O)c1ccc(-c2c[nH]c3ncc(-c4ccccc4)cc23)cc1C1CCCC1 + CC(C)C[C@H](NC(=O)[C@H](Cc1ccccc1)NC(=O)c1cnccn1)B(O)O [Bortezomib] (partner 0.002 µM)
0.983

What do we get for O=C(O)c1ccc(-c2c[nH]c3ncc(-c4ccccc4)cc23)cc1C1CCCC1 + C[C@@H](Oc1cc(-c2cnn(C3CCNCC3)c2)cnc1N)c1c(Cl)ccc(F)c1Cl [Crizotinib] (partner 1 µM) ?
0.822

What do we get for O=C(O)c1ccc(-c2c[nH]c3ncc(-c4ccccc4)cc23)cc1C1CCCC1 + CC(=O)c1c(C)c2cnc(Nc3ccc(N4CCNCC4)cn3)nc2n(C2CCCC2)c1=O [Palbociclib] (partner 0.5 µM) ?
0.514

What do we get for O=C(O)c1ccc(-c2c[nH]c3ncc(-c4ccccc4)cc23)cc1C1CCCC1 + Nc1nc2[nH]cc(CCc3ccc(C(=O)N[C@@H](CCC(=O)O)C(=O)O)cc3)c2c(=O)[nH]1 [Pemetrexed] (partner 0.2 µM) ?
0.641
